Assay name: NCI Yeast Anticancer Drug Screen. Data for the mec2-1 strain (AID 157)
Stated conditions: S. cerevisiae mec2-1 strain, at 50.0 µM
Protocol: Growth inhibition of yeast strains with defined genetic alterations is measured as a screen for potential anti-cancer activity. Selected strains with alterations in DNA damage repair or cell cycle control were exposed to compounds and growth inhibition was measured relative to vehicle treated controls. The strain used in this assay is mec2-1
Compounds without any hit were thinned out: in the full panel of roughly 79,000, 15% have a hit. The source made the active and inactive calls. Cut-off read from the data, not from the text of the source: active = growth inhibition above about 70%; inactive = the rest.
Classes used: active, inactive

1) COCOC(C)=O ... inactive
2) O=P(O)(OCCOc1ccccc1)OCCOc1ccccc1 ... inactive
3) CCCCNS(=O)(=O)c1cc(C(=O)O)cc(C(=O)O)c1 ... inactive
4) CC(=O)Nc1ccc(S(=O)(=O)CCN2C(=O)c3ccccc3C2=O)cc1 ... inactive
5) CCOC(=O)C(c1ccsc1)C(C(=O)OCC)c1cccs1 (stereo not given) ... inactive
6) Cc1cn(C2CC(O)C(CO)C2C)c(=O)[nH]c1=O (stereo not given) ... inactive
7) C=C(C)CS(=O)(=O)Cc1ccccc1 ... inactive
8) Nc1nc(-c2ccc(Cl)c(Cl)c2)cc(-c2cc(-c3ccc(Cl)c(Cl)c3)nc(N)n2)n1 ... inactive
9) CC(C)CC(Nc1ccc2ccccc2c1)C(N)=O (stereo not given) ... inactive
10) O=C(Nc1cccc(Cl)c1)OCC#CCOC(=O)Nc1cccc(Cl)c1 ... inactive
11) CC(C#N)Nc1ccc(Oc2ccc(C(C)(C)c3ccc(Oc4ccc(NC(C)C#N)cc4)cc3)cc2)cc1 (stereo not given) ... inactive
12) C=C1c2nc3ccccc3n2C=C(c2ccc(C)cc2)N1c1ccc(OC)cc1 ... inactive
13) Fc1ccccc1-c1nnc(-c2ccccc2F)o1 ... inactive
14) CCCCN(CCCC)C(=Nc1ccccc1)N(CCCC)CCCC ... inactive
15) COC(=O)NC(Cc1ccccc1)NC(=O)OC(C)(C)C (stereo not given) ... inactive
16) Nc1nc(Cc2ccccc2)cs1 ... inactive
17) CCCSc1nc2c(c(=O)n(C)c(=O)n2C)n1C ... inactive
18) Cc1ccc(S(=O)(=O)N2N=C(c3ccccc3)CC2c2ccccc2)cc1 (stereo not given) ... active
19) NC(=O)C(F)(F)C(F)(F)C(N)=O ... inactive
20) COc1cc(C(=O)NN(C)C)cc(OC)c1OC ... inactive
21) CNCCCC1c2ccccc2C=Cc2ccccc21 ... inactive
22) CC(=O)OC1C(C)OC(n2cnc3c(=O)[nH]cnc32)C1OC(C)=O (stereo not given) ... inactive
23) CCN(CC)Cc1ccc([NH-])c([NH-])c1.CCN(CC)Cc1ccc([NH-])c([NH-])c1.[Cl][Pt+2][Cl].[Cl][Pt+2][Cl].[Cl][Pt+2][Cl] ... inactive
24) N#C/C(=N\NC(=O)c1ccccc1Cl)c1ccccc1Cl ... active
25) Nc1ncc2ncn(C3CCC(CO)O3)c2n1 (stereo not given) ... inactive
26) CC(SC(=S)Nc1ccc(Cl)cc1)C(=O)O (stereo not given) ... inactive
27) COc1ccc(NC(=S)Nc2ccccc2)cc1 ... inactive
28) O=C(C[N+]12CC=C(CO)C1C(O)CC2)c1ccc(Br)cc1 (stereo not given) ... inactive
29) CCN(CC)CCOC1(Cc2ccccn2)CCCCC1 ... inactive
30) NC(=O)C1CCCN1C(=O)C(Cc1cnc[nH]1)NC(=O)C1CCCC1 (stereo not given) ... inactive
31) CN(CCc1ccccn1)C(=S)N/N=C/c1ccccn1 ... active
32) O=C(NCCc1c(-c2ccccc2)[nH]c2ccccc12)C1CCCCC1 ... inactive
33) CC(=O)OC(C)C(=O)OCCOc1ccccc1 (stereo not given) ... inactive
34) Cc1cc(COCCN(C)C)on1 ... inactive
35) CCOC(=O)c1ccc(NC(=S)N(CCC#N)C2CCCCC2)cc1 ... inactive
36) Cc1cccc(Nc2nnc(Nc3cccc(C)n3)c3ccccc23)n1 ... inactive
37) O=C(Cc1ccccc1)N(C(=O)c1ccccc1)c1ccccc1 ... inactive
38) CCOC(=O)N1CCN(c2ccc3ccc(N)nc3n2)CC1 ... inactive
39) CCCC(=O)OCC(C)(C)COC(=O)CCC ... inactive
40) CCOC(=O)C(CC(Nc1ccccc1)(c1ccccc1)c1ccccc1)c1ccccc1 (stereo not given) ... inactive
41) O=C1NC(=S)N/C1=C/c1ccc2c(c1)CCC2 ... inactive
42) Cc1ccc(C2SC(N)=Nc3c2c(C)nn3C(=O)c2ccccc2O)cc1 (stereo not given) ... inactive
43) CCc1ccccc1NOC ... inactive
44) CC(C)C(NC(=O)C(=O)c1c[nH]c2ccc(Cl)cc12)C(=O)O (stereo not given) ... inactive
45) COC(=O)c1ccc(/C=C2\Oc3ccccc3C2=O)cc1 ... inactive
46) O=C(O)CN1CCCCC1 ... inactive
47) CC(C)CCCC(C)C1CCC2(C)C3=C(CCC12C)C1(C)Cc2cnn(-c4ccccc4)c2C(C)(C)C1CC3 (stereo not given) ... inactive
48) O=C(/N=C/c1c(O)c2ccccc2oc1=O)NC1CCCCC1 ... inactive
49) Cc1ccccc1N=CC(C=O)[N+](=O)[O-] (stereo not given) ... inactive
50) NC(=O)N=Nc1ccc(Br)cc1 ... inactive
